Sourced from BindingDB's records for doi:10.1021/bi990204w

Parameter pKi: see the listing below.
Target sequence: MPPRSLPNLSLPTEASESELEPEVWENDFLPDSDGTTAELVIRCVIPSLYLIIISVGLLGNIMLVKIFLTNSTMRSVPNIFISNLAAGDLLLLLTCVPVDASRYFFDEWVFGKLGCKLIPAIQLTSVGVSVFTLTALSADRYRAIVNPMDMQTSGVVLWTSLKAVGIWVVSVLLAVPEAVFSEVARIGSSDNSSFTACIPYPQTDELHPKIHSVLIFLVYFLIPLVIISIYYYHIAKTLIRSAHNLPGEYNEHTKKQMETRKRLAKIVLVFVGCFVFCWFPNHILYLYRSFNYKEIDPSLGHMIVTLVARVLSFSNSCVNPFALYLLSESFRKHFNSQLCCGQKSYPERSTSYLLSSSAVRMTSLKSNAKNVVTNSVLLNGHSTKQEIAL
Where a SMILES comes first, the peptide text is derived from it. [ ]: non-standard residue; d: D form. pGlu = O=C1CC[C@@H](C(=O)O)N1; Nle = CCCC[C@H](N)C(=O)O; βAla = NCCC(=O)O
Interpret pKi as the negative base-10 log of the concentration measured in mol/L.

compound	readout-label	data-value
CSCC[C@H](NC(=O)[C@H](CC(C)C)NC(=O)[C@@H](Cc1ccccc1)NC(=O)CNC(=O)[C@@H](NC(=O)[C@H](C)NC(=O)[C@H](Cc1c[nH]c2ccccc12)NC(=O)[C@H](CCC(N)=O)NC(=O)[C@H](CC(N)=O)NC(=O)CNC(=O)[C@H](CC(C)C)NC(=O)[C@H](CCCN=C(N)N)NC(=O)[C@H](CCC(N)=O)NC(=O)[C@@H]1CCC(=O)N1)C(C)C)C(N)=O [Dphe12-Bn]	pKi	5.72
CSCC[C@H](NC(=O)[C@@H](Cc1c[nH]c2ccccc12)NC(=O)[C@@H](Cc1c[nH]c2ccccc12)NC(=O)[C@H](Cc1ccccc1)NC(=O)[C@@H](Cc1c[nH]c2ccccc12)NC(=O)[C@H](CCC(N)=O)NC(=O)[C@H](CCC(N)=O)NC(=O)[C@H]1CCCN1)C(N)=O [Substance P(4-11),[Dpro4,Dtrp7,9,10]] (H-[dP]QQ[dW]F[dW][dW]M-NH2)	pKi	5.60
CCCC[C@H](NC(=O)[C@H](Cc1ccccc1)NC(=O)[C@H](Cc1c[nH]cn1)NC(=O)CCNC(=O)[C@@H](NC(=O)[C@H](C)NC(=O)[C@H](Cc1c[nH]c2ccccc12)NC(=O)[C@H](CCC(N)=O)NC(=O)[C@H](N)Cc1ccccc1)C(C)C)C(N)=O [DPhe6,BetaAla11,Phe13,Nle14-Bn(6-14)] (H-[dF]QWAV[βAla]HF[Nle]-NH2)	pKi	9.44
CSCC[C@H](NC(=O)[C@H](Cc1ccccc1)NC(=O)[C@H](Cc1c[nH]cn1)NC(=O)CNC(=O)[C@@H](NC(=O)[C@H](C)NC(=O)[C@H](Cc1c[nH]c2ccccc12)NC(=O)[C@H](CCC(N)=O)NC(=O)[C@@H]1CCCN1C(=O)[C@@H](NC(=O)[C@@H]1CCC(=O)N1)C(C)C)C(C)C)C(N)=O [CAS_29451-71-6] ([pGlu]VPQWAVGHFM-NH2)	pKi	7.89
CC(C)C[C@H](NC(=O)[C@H](CC(C)C)NC(=O)[C@@H](Cc1c[nH]c2ccccc12)NC(=O)[C@H](Cc1ccccc1)NC(=O)[C@@H](Cc1c[nH]c2ccccc12)NC(=O)[C@H](CCC(N)=O)NC(=O)[C@H](CCC(N)=O)NC(=O)[C@@H]1CCCN1C(=O)[C@H](CCCCN)NC(=O)[C@@H]1CCCN1C(=O)[C@H](N)CCCN=C(N)N)C(N)=O [Substance P,[DArg1,DTrp7,9,Leu11]] (H-[dR]PKPQQ[dW]F[dW]LL-NH2)	pKi	5.39

# ---- query compound ----
Record CSCC[C@H](NC(=O)[C@H](Cc1ccccc1)NC(=O)[C@H](Cc1c[nH]cn1)NC(=O)CNC(=O)[C@@H](NC(=O)[C@H](C)NC(=O)[C@H](Cc1c[nH]c2ccccc12)NC(=O)[C@H](CCC(N)=O)NC(=O)[C@@H]1CCC(=O)N1)C(C)C)C(N)=O [CAS_5486808] , field pKi: 8.15
